Tested on: HGGX6 (H3.3 G34R paediatric high-grade glioma line)
assay info: growth inhibition (% activity, log2 RLU normalised to DMSO / staurosporine); higher = more growth inhibition
assay setup: 33 µM
Listed below: growth inhibition values for each entry.
Dear colleague, please return just the value in %, with no unit written.

Solved entries (count: 3):
Query string: Please give the documented growth inhibition of COc1ccc(C(CN(C)C)C2(O)CCCCC2)cc1 (configuration not stated)
Result string: -0.233

Query string: Please give the documented growth inhibition of CC(C)NCC(O)c1ccccc1Cl (configuration not stated)
Result string: 1.8

Query string: Please give the documented growth inhibition of CC(=O)Nc1cc([As](=O)(O)O)ccc1O
Result string: 0.00658

Further cases:
Query string: Please give the documented growth inhibition of CC(=O)OC12COC1CC(O)C1(C)C(=O)C(O)C3=C(C)C(O)CC(O)(C(OC(=O)c4ccccc4)C21)C3(C)C (configuration not stated)
Result string: 6.8

Query string: Please give the documented growth inhibition of C=CCN.ClCC1CO1 (configuration not stated)
Result string: -0.039

Query string: Please give the documented growth inhibition of CC(C)N(CCNC(=O)CN1CCCC1=O)C(C)C
Result string: 3.19

Query string: Please give the documented growth inhibition of CCC1=C[C@H]2CN3CCc4c([nH]c5ccccc45)[C@](C(=O)OC)(C2)[C@H]13
Result string: -3.94

Query string: Please give the documented growth inhibition of Cc1cccc(C)c1NC1=NCCCS1
Result string: 0.819

Query string: Please give the documented growth inhibition of CCCN1C[C@H](CSC)C[C@@H]2c3cccc4[nH]cc(c34)C[C@H]21
Result string: 2.2

Query string: Please give the documented growth inhibition of CCC1(c2ccc(N)cc2)CCC(=O)NC1=O (configuration not stated)
Result string: 2.54

Query string: Please give the documented growth inhibition of CC(O)(CS(=O)(=O)c1ccc(F)cc1)C(=O)Nc1ccc(C#N)c(C(F)(F)F)c1 (configuration not stated)
Result string: 0.395
